FYI, the data here is from paper PMC11345841.

targetEntity: FER (Homo sapiens)
Construct: purchased Eurofins DiscoverX KINOMEscan (scanTK)
Sequence (P16591 whole entry): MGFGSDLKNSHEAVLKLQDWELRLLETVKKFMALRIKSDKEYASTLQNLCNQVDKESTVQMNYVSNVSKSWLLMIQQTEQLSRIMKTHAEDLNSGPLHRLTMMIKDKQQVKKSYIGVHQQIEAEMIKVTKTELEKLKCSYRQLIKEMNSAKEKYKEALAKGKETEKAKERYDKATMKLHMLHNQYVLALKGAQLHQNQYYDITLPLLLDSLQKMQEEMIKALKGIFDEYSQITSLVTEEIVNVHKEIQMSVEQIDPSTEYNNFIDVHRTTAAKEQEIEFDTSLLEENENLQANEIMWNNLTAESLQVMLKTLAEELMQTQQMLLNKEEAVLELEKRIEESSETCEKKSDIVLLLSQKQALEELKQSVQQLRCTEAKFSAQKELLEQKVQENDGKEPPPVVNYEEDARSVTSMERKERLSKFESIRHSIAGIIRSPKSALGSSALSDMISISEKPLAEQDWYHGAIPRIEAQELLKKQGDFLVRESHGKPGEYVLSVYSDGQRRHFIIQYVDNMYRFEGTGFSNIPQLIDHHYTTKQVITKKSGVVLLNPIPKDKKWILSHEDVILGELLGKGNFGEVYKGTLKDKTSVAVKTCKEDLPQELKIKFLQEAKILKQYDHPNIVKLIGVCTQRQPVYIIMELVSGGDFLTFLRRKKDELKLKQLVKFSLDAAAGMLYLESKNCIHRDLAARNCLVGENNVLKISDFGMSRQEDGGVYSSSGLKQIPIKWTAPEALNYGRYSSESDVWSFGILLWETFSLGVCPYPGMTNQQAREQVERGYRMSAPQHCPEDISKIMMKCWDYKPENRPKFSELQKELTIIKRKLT
assay: KINOMEscan ScanTK
Assay type: binding
experimentalContext: read-out: %Control @1000nM

compound	remaining binding at 1 µM (%)
C=CC(=O)N1CCC[C@@H](n2nc(-c3ccc(Oc4ccccc4)cc3)c3c(N)ncnc32)C1 [Compound 1g, Ibrutinib, reference compound]	100
COC(=O)c1cnc(S(C)(=O)=O)nc1N1CCCC(n2nc(-c3ccc(Oc4ccccc4)cc3)c3c(N)ncnc32)C1 (centres unmarked) [Compound 8b]	90
CNC(=O)c1cnc(S(C)(=O)=O)nc1N1CCCC(n2nc(-c3ccc(Oc4ccccc4)cc3)c3c(N)ncnc32)C1 (centres unmarked) [Compound 8d]	100
Cc1cnc(S(C)(=O)=O)nc1N1CCCC(n2nc(-c3ccc(Oc4ccccc4)cc3)c3c(N)ncnc32)C1 (centres unmarked) [Compound 8a]	100
CCOC(=O)c1cnc(S(C)(=O)=O)nc1N1CCC[C@@H](n2nc(-c3ccc(Oc4ccccc4)cc3)c3c(N)ncnc32)C1 [Compound 8c]	100

###

Quick list: remaining binding at 1 µM per entry.
targetEntity: EPHA2 (Homo sapiens, UniProt P29317)
Construct: purchased Eurofins DiscoverX KINOMEscan (scanTK)
Sequence (P29317 24-976): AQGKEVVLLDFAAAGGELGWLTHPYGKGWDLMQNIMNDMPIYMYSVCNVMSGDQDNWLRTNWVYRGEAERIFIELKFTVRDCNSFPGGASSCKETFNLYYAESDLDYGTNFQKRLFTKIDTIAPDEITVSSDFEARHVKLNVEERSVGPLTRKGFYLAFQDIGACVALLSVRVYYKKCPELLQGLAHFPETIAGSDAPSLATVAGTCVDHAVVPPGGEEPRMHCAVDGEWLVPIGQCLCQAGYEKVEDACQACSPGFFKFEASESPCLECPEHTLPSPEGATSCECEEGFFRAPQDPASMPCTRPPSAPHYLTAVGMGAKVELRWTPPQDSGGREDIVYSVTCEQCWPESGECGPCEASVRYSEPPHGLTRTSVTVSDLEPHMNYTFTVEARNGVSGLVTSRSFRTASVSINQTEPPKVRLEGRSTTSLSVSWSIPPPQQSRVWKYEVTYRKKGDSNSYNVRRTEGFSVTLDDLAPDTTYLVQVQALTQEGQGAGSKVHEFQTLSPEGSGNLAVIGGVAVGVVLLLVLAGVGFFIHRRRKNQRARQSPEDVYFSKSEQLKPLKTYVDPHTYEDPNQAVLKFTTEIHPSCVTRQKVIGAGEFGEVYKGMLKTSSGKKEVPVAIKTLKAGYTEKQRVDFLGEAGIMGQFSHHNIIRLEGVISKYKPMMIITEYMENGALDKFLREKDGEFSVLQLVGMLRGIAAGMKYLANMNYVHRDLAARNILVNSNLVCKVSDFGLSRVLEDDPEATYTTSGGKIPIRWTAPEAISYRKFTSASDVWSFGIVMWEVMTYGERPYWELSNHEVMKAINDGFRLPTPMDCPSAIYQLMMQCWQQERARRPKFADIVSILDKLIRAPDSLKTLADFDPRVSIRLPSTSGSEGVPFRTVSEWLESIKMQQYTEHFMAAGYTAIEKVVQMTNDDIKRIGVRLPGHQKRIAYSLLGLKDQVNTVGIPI
assay: KINOMEscan ScanTK
Assay type: binding
experimentalContext: @1000nM, read-out: %Control

molecule	targetEntity	remaining binding at 1 µM
CNC(=O)c1cnc(S(C)(=O)=O)nc1N1CCCC(n2nc(-c3ccc(Oc4ccccc4)cc3)c3c(N)ncnc32)C1 (centres unmarked)	EPHA2 (Homo sapiens, UniProt P29317)	98%
CCOC(=O)c1cnc(S(C)(=O)=O)nc1N1CCC[C@@H](n2nc(-c3ccc(Oc4ccccc4)cc3)c3c(N)ncnc32)C1	EPHA2 (Homo sapiens, UniProt P29317)	98%
COC(=O)c1cnc(S(C)(=O)=O)nc1N1CCCC(n2nc(-c3ccc(Oc4ccccc4)cc3)c3c(N)ncnc32)C1 (centres unmarked)	EPHA2 (Homo sapiens, UniProt P29317)	99%
C=CC(=O)N1CCC[C@@H](n2nc(-c3ccc(Oc4ccccc4)cc3)c3c(N)ncnc32)C1 [Compound 1g, Ibrutinib, reference compound]	EPHA2 (Homo sapiens, UniProt P29317)	100%
Cc1cnc(S(C)(=O)=O)nc1N1CCCC(n2nc(-c3ccc(Oc4ccccc4)cc3)c3c(N)ncnc32)C1 (centres unmarked)	EPHA2 (Homo sapiens, UniProt P29317)	88%

###

Quick list: remaining binding at 1 µM per entry.
targetEntity: YES (Homo sapiens, UniProt P07947)
Construct: purchased Eurofins DiscoverX KINOMEscan (scanTK)
Sequence (P07947 whole entry): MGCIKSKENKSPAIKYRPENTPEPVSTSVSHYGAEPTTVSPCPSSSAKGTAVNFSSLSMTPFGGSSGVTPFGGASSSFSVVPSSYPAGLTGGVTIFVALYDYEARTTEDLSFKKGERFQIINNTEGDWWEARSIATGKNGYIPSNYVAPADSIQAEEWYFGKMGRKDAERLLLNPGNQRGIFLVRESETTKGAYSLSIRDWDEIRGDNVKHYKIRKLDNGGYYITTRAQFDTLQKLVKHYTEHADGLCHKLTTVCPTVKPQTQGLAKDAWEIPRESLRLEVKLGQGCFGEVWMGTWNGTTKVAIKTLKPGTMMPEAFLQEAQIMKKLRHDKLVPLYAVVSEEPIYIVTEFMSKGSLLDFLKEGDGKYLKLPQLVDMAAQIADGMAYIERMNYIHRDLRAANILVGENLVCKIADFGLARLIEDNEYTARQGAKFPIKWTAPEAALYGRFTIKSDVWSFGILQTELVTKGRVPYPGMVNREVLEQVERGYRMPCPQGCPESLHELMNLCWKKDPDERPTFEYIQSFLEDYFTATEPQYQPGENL
assay: KINOMEscan ScanTK
Format: binding
experimentalContext: @1000nM, read-out: %Control

compound	targetEntity	remaining binding at 1 µM [%]
CCOC(=O)c1cnc(S(C)(=O)=O)nc1N1CCC[C@@H](n2nc(-c3ccc(Oc4ccccc4)cc3)c3c(N)ncnc32)C1	YES (Homo sapiens, UniProt P07947)	25
CNC(=O)c1cnc(S(C)(=O)=O)nc1N1CCCC(n2nc(-c3ccc(Oc4ccccc4)cc3)c3c(N)ncnc32)C1 (stereo not shown)	YES (Homo sapiens, UniProt P07947)	11
Cc1cnc(S(C)(=O)=O)nc1N1CCCC(n2nc(-c3ccc(Oc4ccccc4)cc3)c3c(N)ncnc32)C1 (stereo not shown)	YES (Homo sapiens, UniProt P07947)	8.1
COC(=O)c1cnc(S(C)(=O)=O)nc1N1CCCC(n2nc(-c3ccc(Oc4ccccc4)cc3)c3c(N)ncnc32)C1 (stereo not shown)	YES (Homo sapiens, UniProt P07947)	16

###

targetEntity: FGFR2 (Homo sapiens)
Construct: purchased Eurofins DiscoverX KINOMEscan (scanTK)
assay: KINOMEscan ScanTK
Format: binding
experimentalContext: read-out: %Control @1000nM
Friendly reminder: remaining binding at 1 µM below 80% is MET, at or above is NOT MET.

compound	discreteLabel
COC(=O)c1cnc(S(C)(=O)=O)nc1N1CCCC(n2nc(-c3ccc(Oc4ccccc4)cc3)c3c(N)ncnc32)C1 (centres unmarked)	NOT MET
CNC(=O)c1cnc(S(C)(=O)=O)nc1N1CCCC(n2nc(-c3ccc(Oc4ccccc4)cc3)c3c(N)ncnc32)C1 (centres unmarked)	MET
C=CC(=O)N1CCC[C@@H](n2nc(-c3ccc(Oc4ccccc4)cc3)c3c(N)ncnc32)C1 [Compound 1g, Ibrutinib, reference compound]	MET
Cc1cnc(S(C)(=O)=O)nc1N1CCCC(n2nc(-c3ccc(Oc4ccccc4)cc3)c3c(N)ncnc32)C1 (centres unmarked)	NOT MET

###

Quick list: difference in %Control vs reference Ib at 1 µM per entry.
targetEntity: BLK (Homo sapiens)
Construct: purchased Eurofins DiscoverX KINOMEscan (scanTK)
Sequence (P51451 whole entry): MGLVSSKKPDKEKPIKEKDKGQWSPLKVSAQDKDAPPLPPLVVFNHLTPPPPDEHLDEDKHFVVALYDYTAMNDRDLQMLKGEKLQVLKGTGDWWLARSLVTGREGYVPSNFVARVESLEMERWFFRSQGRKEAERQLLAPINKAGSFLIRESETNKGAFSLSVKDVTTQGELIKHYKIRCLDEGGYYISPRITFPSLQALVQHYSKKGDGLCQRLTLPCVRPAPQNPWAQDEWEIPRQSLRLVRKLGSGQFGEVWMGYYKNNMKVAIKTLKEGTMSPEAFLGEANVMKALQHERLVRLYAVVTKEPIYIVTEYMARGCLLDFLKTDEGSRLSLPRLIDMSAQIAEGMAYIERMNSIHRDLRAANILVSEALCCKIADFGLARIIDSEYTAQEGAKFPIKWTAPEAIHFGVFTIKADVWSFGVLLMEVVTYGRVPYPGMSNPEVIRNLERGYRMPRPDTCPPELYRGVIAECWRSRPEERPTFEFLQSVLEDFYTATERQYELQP
assay: KINOMEscan ScanTK
Format: binding
experimentalContext: @1000nM; BLK; read-out: % difference (compound - Ib %Control)
assayMetric: difference in %Control vs reference Ib at 1 µM

compound	endpointResult
COC(=O)c1cnc(S(C)(=O)=O)nc1N1CCCC(n2nc(-c3ccc(Oc4ccccc4)cc3)c3c(N)ncnc32)C1 (stereo not shown)	0.35%
Cc1cnc(S(C)(=O)=O)nc1N1CCCC(n2nc(-c3ccc(Oc4ccccc4)cc3)c3c(N)ncnc32)C1 (stereo not shown)	0.05%
CNC(=O)c1cnc(S(C)(=O)=O)nc1N1CCCC(n2nc(-c3ccc(Oc4ccccc4)cc3)c3c(N)ncnc32)C1 (stereo not shown)	-0.05%
CCOC(=O)c1cnc(S(C)(=O)=O)nc1N1CCC[C@@H](n2nc(-c3ccc(Oc4ccccc4)cc3)c3c(N)ncnc32)C1	0.15%

###

Quick list: remaining binding at 1 µM per entry.
targetEntity: ABL1(F317L)-phosphorylated (Homo sapiens, UniProt P00519, F317L)
Construct: purchased Eurofins DiscoverX KINOMEscan (scanTK)
Sequence (P00519 whole entry F317L): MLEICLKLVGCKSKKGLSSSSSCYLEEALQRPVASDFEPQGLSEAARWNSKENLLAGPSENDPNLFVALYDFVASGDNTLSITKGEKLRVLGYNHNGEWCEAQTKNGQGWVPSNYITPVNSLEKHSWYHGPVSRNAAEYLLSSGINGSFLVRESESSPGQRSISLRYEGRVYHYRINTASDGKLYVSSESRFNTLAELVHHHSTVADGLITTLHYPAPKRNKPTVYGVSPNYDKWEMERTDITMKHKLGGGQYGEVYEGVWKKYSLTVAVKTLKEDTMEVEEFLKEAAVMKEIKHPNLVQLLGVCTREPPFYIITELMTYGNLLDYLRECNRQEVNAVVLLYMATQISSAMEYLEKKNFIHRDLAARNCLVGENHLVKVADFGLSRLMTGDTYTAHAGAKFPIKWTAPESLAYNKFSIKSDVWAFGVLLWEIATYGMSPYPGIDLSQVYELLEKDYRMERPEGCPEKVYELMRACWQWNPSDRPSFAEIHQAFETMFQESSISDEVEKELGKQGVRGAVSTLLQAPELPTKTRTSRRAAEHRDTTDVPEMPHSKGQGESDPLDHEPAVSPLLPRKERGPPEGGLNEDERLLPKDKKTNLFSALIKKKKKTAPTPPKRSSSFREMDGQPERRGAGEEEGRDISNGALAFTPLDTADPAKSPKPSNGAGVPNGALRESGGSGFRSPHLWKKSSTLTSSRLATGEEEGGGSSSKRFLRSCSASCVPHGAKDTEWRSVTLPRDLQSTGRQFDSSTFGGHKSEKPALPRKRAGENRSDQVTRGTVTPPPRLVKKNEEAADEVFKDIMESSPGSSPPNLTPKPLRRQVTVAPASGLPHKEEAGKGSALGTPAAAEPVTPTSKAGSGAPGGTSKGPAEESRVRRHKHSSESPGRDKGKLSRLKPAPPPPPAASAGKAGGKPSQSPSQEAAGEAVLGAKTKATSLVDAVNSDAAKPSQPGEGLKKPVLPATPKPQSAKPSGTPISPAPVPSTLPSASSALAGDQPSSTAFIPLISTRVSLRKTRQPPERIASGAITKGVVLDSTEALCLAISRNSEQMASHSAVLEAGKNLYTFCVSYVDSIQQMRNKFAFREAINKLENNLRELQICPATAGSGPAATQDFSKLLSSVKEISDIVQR
assay: KINOMEscan ScanTK
Type: binding
experimentalContext: read-out: %Control @1000nM

compound	remaining binding at 1 µM
CCOC(=O)c1cnc(S(C)(=O)=O)nc1N1CCC[C@@H](n2nc(-c3ccc(Oc4ccccc4)cc3)c3c(N)ncnc32)C1 [Compound 8c]	86%
CNC(=O)c1cnc(S(C)(=O)=O)nc1N1CCCC(n2nc(-c3ccc(Oc4ccccc4)cc3)c3c(N)ncnc32)C1 (stereo not shown) [Compound 8d]	76%
COC(=O)c1cnc(S(C)(=O)=O)nc1N1CCCC(n2nc(-c3ccc(Oc4ccccc4)cc3)c3c(N)ncnc32)C1 (stereo not shown) [Compound 8b]	53%
Cc1cnc(S(C)(=O)=O)nc1N1CCCC(n2nc(-c3ccc(Oc4ccccc4)cc3)c3c(N)ncnc32)C1 (stereo not shown) [Compound 8a]	52%

###

targetEntity: KIT(A829P) (Homo sapiens, UniProt P10721, A829P)
Construct: purchased Eurofins DiscoverX KINOMEscan (scanTK)
Sequence (P10721 26-976 A829P): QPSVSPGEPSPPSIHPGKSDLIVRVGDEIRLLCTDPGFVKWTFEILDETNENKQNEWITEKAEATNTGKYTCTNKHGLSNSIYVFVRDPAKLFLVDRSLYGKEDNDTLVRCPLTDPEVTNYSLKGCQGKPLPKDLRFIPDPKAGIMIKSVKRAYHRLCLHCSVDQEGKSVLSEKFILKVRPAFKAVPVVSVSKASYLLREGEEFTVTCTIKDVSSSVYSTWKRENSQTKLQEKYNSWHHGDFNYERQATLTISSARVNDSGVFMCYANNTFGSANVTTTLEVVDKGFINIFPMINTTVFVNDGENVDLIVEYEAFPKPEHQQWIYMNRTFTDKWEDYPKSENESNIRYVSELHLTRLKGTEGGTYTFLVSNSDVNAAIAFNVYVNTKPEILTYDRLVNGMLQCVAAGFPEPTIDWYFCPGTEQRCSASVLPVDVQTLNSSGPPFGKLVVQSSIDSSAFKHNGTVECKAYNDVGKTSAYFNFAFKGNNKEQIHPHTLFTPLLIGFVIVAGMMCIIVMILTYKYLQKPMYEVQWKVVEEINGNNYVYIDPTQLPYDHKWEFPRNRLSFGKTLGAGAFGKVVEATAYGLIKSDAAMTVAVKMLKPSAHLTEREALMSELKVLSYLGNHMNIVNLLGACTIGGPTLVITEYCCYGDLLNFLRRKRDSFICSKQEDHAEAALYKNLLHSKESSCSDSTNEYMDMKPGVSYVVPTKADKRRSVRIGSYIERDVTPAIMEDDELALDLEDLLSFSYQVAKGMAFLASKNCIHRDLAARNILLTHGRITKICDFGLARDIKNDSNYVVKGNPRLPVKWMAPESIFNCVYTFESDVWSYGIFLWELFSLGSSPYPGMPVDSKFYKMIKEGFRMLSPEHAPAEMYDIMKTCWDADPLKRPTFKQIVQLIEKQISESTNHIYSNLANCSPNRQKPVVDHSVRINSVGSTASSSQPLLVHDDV
assay: KINOMEscan ScanTK
Assay type: binding
experimentalContext: @1000nM, read-out: %Control

compound	remaining binding at 1 µM (%)
CNC(=O)c1cnc(S(C)(=O)=O)nc1N1CCCC(n2nc(-c3ccc(Oc4ccccc4)cc3)c3c(N)ncnc32)C1 (stereo not shown) [Compound 8d]	63
CCOC(=O)c1cnc(S(C)(=O)=O)nc1N1CCC[C@@H](n2nc(-c3ccc(Oc4ccccc4)cc3)c3c(N)ncnc32)C1 [Compound 8c]	73
Cc1cnc(S(C)(=O)=O)nc1N1CCCC(n2nc(-c3ccc(Oc4ccccc4)cc3)c3c(N)ncnc32)C1 (stereo not shown) [Compound 8a]	84
COC(=O)c1cnc(S(C)(=O)=O)nc1N1CCCC(n2nc(-c3ccc(Oc4ccccc4)cc3)c3c(N)ncnc32)C1 (stereo not shown) [Compound 8b]	70

###

targetEntity: IGF1R (Homo sapiens, UniProt P08069)
Construct: purchased Eurofins DiscoverX KINOMEscan (scanTK)
assay: KINOMEscan ScanTK
Format: binding
experimentalContext: @1000nM, read-out: %Control

compound	unitSpec	remaining binding at 1 µM
COC(=O)c1cnc(S(C)(=O)=O)nc1N1CCCC(n2nc(-c3ccc(Oc4ccccc4)cc3)c3c(N)ncnc32)C1 (centres unmarked) [Compound 8b]	%	94
CCOC(=O)c1cnc(S(C)(=O)=O)nc1N1CCC[C@@H](n2nc(-c3ccc(Oc4ccccc4)cc3)c3c(N)ncnc32)C1 [Compound 8c]	%	92
Cc1cnc(S(C)(=O)=O)nc1N1CCCC(n2nc(-c3ccc(Oc4ccccc4)cc3)c3c(N)ncnc32)C1 (centres unmarked) [Compound 8a]	%	100
CNC(=O)c1cnc(S(C)(=O)=O)nc1N1CCCC(n2nc(-c3ccc(Oc4ccccc4)cc3)c3c(N)ncnc32)C1 (centres unmarked) [Compound 8d]	%	100
C=CC(=O)N1CCC[C@@H](n2nc(-c3ccc(Oc4ccccc4)cc3)c3c(N)ncnc32)C1 [Compound 1g, Ibrutinib, reference compound]	%	96

###

targetEntity: FLT3(K663Q) (Homo sapiens, UniProt P36888, K663Q)
Construct: purchased Eurofins DiscoverX KINOMEscan (scanTK)
assay: KINOMEscan ScanTK
Assay type: binding
experimentalContext: @1000nM
Quick list: difference in %Control from compound Ib at 1 µM per entry.
assayMetric: difference in %Control from compound Ib at 1 µM (%)

compound	unitSpec	endpointResult
COC(=O)c1cnc(S(C)(=O)=O)nc1N1CCCC(n2nc(-c3ccc(Oc4ccccc4)cc3)c3c(N)ncnc32)C1 (stereo not shown)	%	29
Cc1cnc(S(C)(=O)=O)nc1N1CCCC(n2nc(-c3ccc(Oc4ccccc4)cc3)c3c(N)ncnc32)C1 (stereo not shown)	%	14
CNC(=O)c1cnc(S(C)(=O)=O)nc1N1CCCC(n2nc(-c3ccc(Oc4ccccc4)cc3)c3c(N)ncnc32)C1 (stereo not shown)	%	36
CCOC(=O)c1cnc(S(C)(=O)=O)nc1N1CCC[C@@H](n2nc(-c3ccc(Oc4ccccc4)cc3)c3c(N)ncnc32)C1	%	56
